Assay: modulators of HCV replicon luciferase signal, primary screen, HCV replication inhibitor project, Huh7 cells, luciferase reporter (AID 1109);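 further: huh7 hepatoma cells harbouring a luciferase neomycin HCV replicon reporter; luciferase luminescence as measure of HCV replicon replication; test concentration not given here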
Conditions: 48 h, higher = more signal
reported endpoint: z-score
Provide a numeric answer; units are not to be included.

Look up and report measured z-score for this entry: `CO[C@@H]1COC(=O)CC=C[C@@H](C)[C@H](OC)COC(=O)[C@H](COCc2ccccc2)NC(=O)CC=C[C@H]1C` -1.36

Look up and report measured z-score for this entry: `Cc1cc2c(c(=O)o1)[C@H](O)[C@H]1O[C@H]1C2=O` -2.16

Look up and report measured z-score for this entry: `CC=CC1=C(CO)[C@H](O)[C@H]2O[C@H]2[C@H]1O` -0.956

Look up and report measured z-score for this entry: `COc1cccc([C@H]2Oc3ccc(OC)cc3C(=NO[C@H](C)c3cn([C@@H]4COC[C@H]4O)nn3)[C@@H]2O)c1` -0.0869

Look up and report measured z-score for this entry: `CO[C@@H]1COC(=O)[C@@H]2CCCN2C(=O)[C@@H](C)COC(=O)[C@H](COCc2ccccc2)NC(=O)CC=C[C@H]1C` 0.323

Look up and report measured z-score for this entry: `C[C@@H]1C=CCC(=O)OC[C@H](C)C(=O)OC[C@H]2O[C@H]1C=C[C@H]2O` -2.33

Look up and report measured z-score for this entry: COC(=O)[C@H](C)NC(=O)CCC1CC(OC(=O)NCCc2ccc(F)cc2)CC2(CCCC(COC(=O)NCCc3ccc(Cl)cc3)O2)O1 (some centres not stated) -0.0845

Look up and report measured z-score for this entry: `CO[C@H]1COC(=O)[C@H](C)COC(=O)CC=C[C@@H](C)[C@H](OC)COC(=O)CC=C[C@@H]1C` -0.265

Look up and report measured z-score for this entry: COc1ccc(O[C@H]2C=C[C@@H](c3ccccc3)O[C@@H]2COC(=O)CCC(C)=NOC(C)CN2CCCCc3nc(C)c(C)cc32)cc1 (some centres not stated) -0.239

Look up and report measured z-score for this entry: `[N-]=[N+]=Nc1ccccc1C[C@@]1(C(N)=O)N=C(c2ccc(OCCCO)cc2)O[C@@H]1c1ccccc1` -2.38

Look up and report measured z-score for this entry: CC(CCN1CCCCc2nc(C)c(C)cc21)=NOC(C)CN1CCCCc2nc(C)c(C)cc21 (configuration not stated) -2.95

Look up and report measured z-score for this entry: C=CCC(OC(C)=O)[C@@H]1[C@@H](N(Cc2cc3ccccc3o2)C(=O)Cc2ccc(F)cc2)c2cc(OCCCO)ccc2N1C(=O)Cc1ccc(OC)cc1 (some centres not stated) -1.14

Look up and report measured z-score for this entry: `COc1ccc(OC[C@H]2Cc3c(-c4ccccc4)nc4c(c3CO2)CN(CCOc2ccccc2)CC4)cc1` -1.77

Look up and report measured z-score for this entry: `COc1cccc([C@@H]2Oc3ccc(Br)cc3C(=O)[C@H]2O)c1` 3.55

Look up and report measured z-score for this entry: `CO[C@@H]1COC(=O)CCC[C@@H](C)[C@H](OC)COC(=O)[C@H](Cc2ccccc2)NC(=O)CC=C[C@H]1C` -1.48

Look up and report measured z-score for this entry: `CC(C)[C@@H](OCc1ccccc1)[C@H](C)C=NOC[C@@H](C)[C@H](OCc1ccccc1)C(C)C` -0.534

Look up and report measured z-score for this entry: O=C1NC(=O)C2C1C=CC(C(O)Cc1ccccc1)N2Nc1ccccn1 (configuration not stated) -0.377

Where do these numbers come from? They come from PubChem BioAssay.
